Ref: the NIST ThermoML archive (doi:10.1021/je100734t)

Below, each entry is listed alongside its reported speed of sound.
settings: 313.15 K; 101 kPa; Liquid; Pulse-echo method
quantity name: speed of sound (m/s)

INSERT INTO measurements (query_smiles, quantity_name, result_units, measurement) VALUES
  ('CCCCCCCCCCO', 'speed of sound', 'm/s', 1329),
  ('CCCCCCCCCO', 'speed of sound', 'm/s', 1314),
  ('Cc1ccccc1C', 'speed of sound', 'm/s', 1289);
